Tested on: CD2F1 mice, L1210 leukemia ip, survival T/C
Assay: NCI In Vivo Anticancer Drug Screen. Data for tumor model L1210 Leukemia (intraperitoneal) in CD2F1 (CDF1) mice
Settings: endpoint: mean survival time; dose: 50.0 mg/kg/injection; schedule: Q04DX002 (ip); vehicle: saline with Tween-80; higher = longer survival
Toxic doses and inconclusive results are not listed.
recordedEndpoint: T/C

Some solved entries appear below for comparison.
{"compound": "COC(=O)C1C(C(C)=O)C2C(=O)C3C(C(=O)OC)C(C(=O)OC)C3C(=O)C12 (configuration not stated)", "T/C": "96 % of control"}
{"compound": "CS(=O)(=O)N1C(=O)c2ccccc2C1=O", "T/C": "98 % of control"}
{"compound": "c1ccc(-c2nnc(-c3ccccn3)o2)nc1", "T/C": "98 % of control"}
{"compound": "COc1cccc2c1CCN1C3=C(CC(OC)CC3)C(=O)CC21 (configuration not stated)", "T/C": "104 % of control"}
{"compound": "CCC1=C/C(=C\\c2ccc3c(c2)OCO3)C(=O)S1", "T/C": "89 % of control"}
{"compound": "NC(=O)C(O)(c1ccc(Br)cc1)C(Cl)Cl (configuration not stated)", "T/C": "107 % of control"}
{"compound": "CCCCCCCCCCCCCCCCCC[N+](CCO)(CCO)Cc1ccc(C[N+](CCO)(CCO)CCCCCCCCCCCCCCCCCC)cc1", "T/C": "89 % of control"}
{"compound": "O=C(COc1ccccc1-c1ccccc1)Nc1ccccc1-c1ccccc1", "T/C": "98 % of control"}
{"compound": "CCNc1nnc(N=Nc2ccccc2)s1", "T/C": "95 % of control"}
{"compound": "CNc1nc(N)[nH]c(=O)c1N=O", "T/C": "105 % of control"}

*Q* Specify measured T/C for CN1C(=O)C2CCC1C(O)C2 (configuration not stated) .
*A* 106 % of control

*Q* Specify measured T/C for `CCc1cc(/C=C2\C(=O)C=Cc3ccccc32)c(O)s1` .
*A* 96 % of control

Ref: PubChem BioAssay AID256
